// values below are reported kinase still bound, per cent of control
biological target: CDK9 (human) (UniProt P50750); assay: KINOMEscan competition binding; details: compound 10.0 µM
Sequence (P50750 whole entry, looked up): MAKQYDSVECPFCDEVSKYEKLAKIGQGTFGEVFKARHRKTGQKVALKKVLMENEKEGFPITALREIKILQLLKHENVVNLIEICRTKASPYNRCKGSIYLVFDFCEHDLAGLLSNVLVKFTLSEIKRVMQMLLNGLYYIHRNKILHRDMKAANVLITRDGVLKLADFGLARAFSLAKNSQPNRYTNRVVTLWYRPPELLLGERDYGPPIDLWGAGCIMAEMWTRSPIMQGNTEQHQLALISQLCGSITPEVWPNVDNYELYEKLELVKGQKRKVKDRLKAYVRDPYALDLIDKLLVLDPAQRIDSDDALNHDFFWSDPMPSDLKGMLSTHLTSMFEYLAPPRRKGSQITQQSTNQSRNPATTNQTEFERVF

| Chemical structure | Measured target | Value units | kinase still bound, per cent of control |
| --- | --- | --- | --- |
| COc1cc(N2CCN(C)CC2)ccc1Nc1ncc2c(n1)N(C)c1ccccc1C(=O)N2C | CDK9 (human) (UniProt P50750) | % | 100 |
| CCN(CC)CCCCNc1ncc2cc(-c3cc(OC)cc(OC)c3)c(NC(=O)NC(C)(C)C)nc2n1 | CDK9 (human) (UniProt P50750) | % | 100 |
| CNC(=O)c1ccc(Nc2cc(Nc3ccccc3S(=O)(=O)C(C)C)c3cc[nH]c3n2)nc1 | CDK9 (human) (UniProt P50750) | % | 100 |
| O=C(Nc1cccc(Nc2ncc(Br)c(NCCc3cnc[nH]3)n2)c1)N1CCCC1 | CDK9 (human) (UniProt P50750) | % | 66 |
| COc1ccc(N(C(=O)Oc2c(C)cccc2C)c2ccnc(Nc3ccc(N4CCN(C)CC4)cc3)n2)c(OC)c1 | CDK9 (human) (UniProt P50750) | % | 33 |

Sourced from the kinase profiling compilation of Christmann-Franck et al. (2016)
